assay: chemical genetic growth profiling, strain panel (AID 1159580);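 also: tested at 20 µM; growth read once vehicle control cultures reached saturation at 30 °C; 1 = growth at the plate median or of vehicle wells; lower values mean less growth of the strain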; conditions: S. cerevisiae deletion strains, growth OD, locus YDR101C, strain arx1, hits give low values
In all, about 5,500 compounds went through this assay and about 2,000 (36%) were called active. Not shown: some 18% with an inconclusive outcome. The list shows a part of the results.
measure name: normalized growth
One number for each entry.

A selection of reference data follows.
O=C(O[C@@H]1Cc2c(O)cc(O)cc2O[C@@H]1c1cc(O)c(=O)c2c(O)c(O)cc([C@H]3Oc4cc(O)cc(O)c4C[C@H]3OC(=O)c3cc(O)c(O)c(O)c3)c2c1)c1cc(O)c(O)c(O)c1: 1
O=C(O[C@@H]1Cc2c(O)cc(O)cc2O[C@@H]1c1cc(O)c(=O)c2c(O)c(O)cc([C@H]3Oc4cc(O)cc(O)c4C[C@H]3O)c2c1)c1cc(O)c(O)c(O)c1: 0.896
CCCCCCCCCCCC1=C(O)C(=O)C=C(O)C1=O: 0.871

# ---- query compound ----
# input compound: O=C1C=C2C(=CCOC2O)O1 (centres undefined) ; wanted: its normalized growth
0.8
